protocolText: qHTS for Inhibitos of Bacillus subtilis Sfp phosphopantetheinyl transferase (PPTase): Chemistry Optimization Followup in B. Subtilis 168
reportedConditions: B. subtilis 168 growth, BacTiter-Glo luminescence, 5 h; series mostly up to 114 µM
Inconclusive results are not listed. Calls of active or inactive are those of the source. Calls follow the shape of the dose curve; as a rule, active = well fitted inhibition curve with a large enough effect; inconclusive = small, poorly fitted or top-dose-only effect; inactive = no such curve, though single readings can be large or run the other way.
Outcome codes: y = active, n = inactive

smilesEntry: COc1cccc(NC(=S)N2CCN(c3cc(C(F)(F)F)cc(C(F)(F)F)c3)CC2)n1
assignedLabel: n
--
smilesEntry: OCc1ccnc(NC(=S)N2CCN(c3cccc(C(F)(F)F)c3)CC2)c1
assignedLabel: y
--
smilesEntry: Cc1ccc(N2CCN(C(=S)Nc3cc(C)ccn3)CC2)cc1
assignedLabel: y
--
smilesEntry: Cc1cc(C)nc(NC(=S)N2CCN(Cc3cccc4ccccc34)CC2)c1
assignedLabel: y
--
smilesEntry: COc1cccc(NC(=S)N2CCN(c3ccccc3C(F)(F)F)CC2)n1
assignedLabel: y
--
smilesEntry: Cc1cc(C)nc(NC(=S)N2CCN(c3ccc(Cl)cc3Cl)CC2)c1
assignedLabel: y
--
smilesEntry: Cc1cc(C)nc(Nc2nnc(N3CCN(c4cccc(C(F)(F)F)c4)CC3)s2)c1
assignedLabel: n
--
smilesEntry: S=C(Nc1cc(Cl)ccn1)N1CCN(c2cc(Cl)cc(Cl)c2)CC1
assignedLabel: y
--
smilesEntry: Cc1cc(C)nc(NC(=S)N2CCN(c3ccc4cn(C)nc4c3)CC2)c1
assignedLabel: n
--
smilesEntry: COc1ccnc(NC(=S)N2CCN(c3ncc(C(F)(F)F)cc3Cl)CC2)c1
assignedLabel: y
